System: crabgrass
Experiment: Test B pre/postemergence crabgrass
Type: in vivo, Digitaria sanguinalis
Settings: Rate 250 g/ha; Postemergence
parameter: Plant response rating (0 to 10; 0 is no effect, 10 is complete control), Crabgrass
In your answer, state the number alone without any accompanying words.

- CCCCCCCCCCCCCCCCCCCn1c(=O)on(C(=O)N(c2ccc(F)cc2)C(C)C)c1=O [Compound 253]: 0
- CC(C)N(C(=O)n1oc(=O)n(CCC2OCCO2)c1=O)c1ccc(F)cc1 [Compound 219]: 6
- COc1cc(C)cc(C)c1-n1c(=O)on(C(=O)N(c2ccc(F)cc2)C(C)C)c1=O [Compound 222]: 0
- Cc1nc(C)c(-n2c(=O)on(C(=O)N(c3ccc(F)cc3)C(C)C)c2=O)s1 [Compound 198]: 0

Below: the item to evaluate.
// sample Cc1nc(C)c(Cn2c(=O)on(C(=O)N(c3ccc(F)cc3F)C(C)C)c2=O)s1 [Compound 233] , its Plant response rating (0 to 10; 0 is no effect, 10 is complete control), Crabgrass was 1

###

Test system: morningglory
Test: Test B pre/postemergence morningglory
Format: in vivo, Ipomoea hederacea
Conditions: Postemergence, Rate 250 g/ha; scale of 0 to 10, 0 is no effect, 10 is complete control
Examples of molecules with documented Morningglory plant response rating follow.
In your answer, state the number alone without any accompanying words.

Sample records with Morningglory plant response rating:
- C=C(Cl)Cn1c(=O)on(C(=O)N(c2ccccc2)C(C)C)c1=O: 8
- COP(=O)(CCn1c(=O)on(C(=O)N(c2ccc(F)cc2)C(C)C)c1=O)OC: 9
- COC(C)n1c(=O)on(C(=O)N(c2ccc(F)cc2F)C(C)C)c1=O (centres unmarked): 0
- CC(C)N(C(=O)n1oc(=O)n(C(C)CBr)c1=O)c1ccc(F)cc1F (centres unmarked): 2

Below: the item to evaluate.
// sample `CC(C)N(C(=O)n1oc(=O)n(Cc2nnc(Cl)s2)c1=O)c1ccccc1` , its Morningglory plant response rating was 10

###

Tested on: sugar beet
Test: Test B pre/postemergence sugar beet
Assay type: in vivo, Beta vulgaris
Conditions: Postemergence, Rate 125 g/ha; scale of 0 to 10 where 0 is no effect and 10 is complete control
parameter: Sugarbeets plant response rating

Sample records with Sugarbeets plant response rating:
* C=CCn1c(=O)on(C(=O)N(c2ccc(F)cc2F)C2CC2)c1=O [Compound 127] | 0
* Cc1ccccc1-n1c(=O)on(C(=O)N(c2c(F)cccc2F)C(C)C)c1=O [Compound 176] | 0

// sample CC(C)N(C(=O)n1oc(=O)n(C(C)C)c1=O)c1ccccc1 [Compound 113] , its Sugarbeets plant response rating was 4

###

System: bedstraw
Test: Test B pre/postemergence bedstraw
Assay type: in vivo, Galium aparine
Settings: Preemergence, Rate 500 g/ha; scale of 0 to 10 where 0 is no effect and 10 is complete control
parameter: Plant response rating, Bedstraw
In your answer, state the number alone without any accompanying words.

Sample records with Plant response rating, Bedstraw:
- Cc1ccccc1-n1c(=O)on(C(=O)N(c2ccc(Oc3ccccc3)cc2)C(C)C)c1=O: 0
- CCn1ncc(Cn2c(=O)on(C(=O)N(c3ccc(F)cc3F)C(C)C)c2=O)c1Cl: 0
- CC(C)N(C(=O)n1oc(=O)n(C(CF)CCl)c1=O)c1ccc(F)cc1 (racemic): 10
- Cc1ccccc1-n1c(=O)on(C(=O)N(c2ccc(C(C)C)cc2)C(C)C)c1=O: 0

Below: the item to evaluate.
// sample `CC(C)N(C(=O)n1oc(=O)n(CCC2OCCO2)c1=O)c1ccc(F)cc1` , its Plant response rating, Bedstraw was 9

// data source = patent US6737383B1
